Just for reference, patent US5219859A is where these values come from.

readout kind: pIC50
// pIC50: -log10(molar conc.)

Req: Give the reported pIC50 for CC(C)c1cccc(C(C)C)c1NC(=O)NCC1(c2cn(C)c3ccccc23)CCCC1 [compound No. 1] (system: aortic ACAT (acylcoenzyme A:cholesterol acyltransferase) (Oryctolagus cuniculus)).
Sequence (A0A5F9CPP4 1-555): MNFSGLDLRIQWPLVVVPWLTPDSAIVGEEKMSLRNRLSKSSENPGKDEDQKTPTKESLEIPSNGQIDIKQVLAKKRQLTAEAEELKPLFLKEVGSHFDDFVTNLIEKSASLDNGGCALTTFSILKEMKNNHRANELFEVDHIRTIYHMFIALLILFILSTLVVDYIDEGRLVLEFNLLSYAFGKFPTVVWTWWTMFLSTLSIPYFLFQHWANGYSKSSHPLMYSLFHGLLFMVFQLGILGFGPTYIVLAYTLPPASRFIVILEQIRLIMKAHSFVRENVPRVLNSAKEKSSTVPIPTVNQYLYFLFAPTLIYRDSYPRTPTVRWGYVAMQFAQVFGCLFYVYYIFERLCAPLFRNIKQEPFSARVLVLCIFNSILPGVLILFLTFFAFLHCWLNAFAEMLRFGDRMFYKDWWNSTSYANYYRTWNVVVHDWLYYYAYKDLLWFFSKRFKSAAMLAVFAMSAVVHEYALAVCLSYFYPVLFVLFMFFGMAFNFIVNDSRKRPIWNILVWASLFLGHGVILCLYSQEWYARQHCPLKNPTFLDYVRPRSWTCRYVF
Resp: 7.34
